In this section we review reported Displacement values for a set of molecules.
Biological target: Adenosine receptor A2a (Homo sapiens, UniProt P29274)
Sequence (P29274 whole entry): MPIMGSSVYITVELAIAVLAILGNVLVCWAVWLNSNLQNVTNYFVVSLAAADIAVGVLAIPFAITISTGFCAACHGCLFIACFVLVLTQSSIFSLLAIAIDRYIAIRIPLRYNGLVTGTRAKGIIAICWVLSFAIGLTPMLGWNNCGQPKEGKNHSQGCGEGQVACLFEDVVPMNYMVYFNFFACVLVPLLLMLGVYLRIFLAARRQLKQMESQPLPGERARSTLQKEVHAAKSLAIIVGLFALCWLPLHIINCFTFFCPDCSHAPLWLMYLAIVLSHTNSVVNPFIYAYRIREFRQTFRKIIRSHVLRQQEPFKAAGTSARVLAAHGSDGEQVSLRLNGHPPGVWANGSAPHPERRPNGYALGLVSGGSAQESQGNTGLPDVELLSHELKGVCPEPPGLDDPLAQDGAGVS
Assay: Ability to displace [3H]- ZM-241385 from CHO cell membrane expressing the human Adenosine A2A receptor at a concentration of 10 uM
Assay type: cell membranes
EXPERIMENTAL_READOUT: Displacement (%)

1. CC(C)(C)c1ccn2c(c1)nc1c2c(=O)[nH]c(=O)n1Cc1ccccc1    23
2. COc1ccc(Cn2c(=O)c3c(nc4ccccn43)n(Cc3ccccc3)c2=O)cc1    16
3. CCCn1c(=O)c2c(nc3ccccn32)n(Cc2ccc(OC)cc2)c1=O    40
4. CCCn1c(=O)c2c(nc3ccccn32)n(Cc2cccc(C)c2)c1=O    35
5. NCCCn1c(=O)c2c(nc3ccccn32)n(Cc2ccccc2)c1=O    11

* * *

Target: Adenosine receptor A1 (Homo sapiens)
Sequence (whole entry): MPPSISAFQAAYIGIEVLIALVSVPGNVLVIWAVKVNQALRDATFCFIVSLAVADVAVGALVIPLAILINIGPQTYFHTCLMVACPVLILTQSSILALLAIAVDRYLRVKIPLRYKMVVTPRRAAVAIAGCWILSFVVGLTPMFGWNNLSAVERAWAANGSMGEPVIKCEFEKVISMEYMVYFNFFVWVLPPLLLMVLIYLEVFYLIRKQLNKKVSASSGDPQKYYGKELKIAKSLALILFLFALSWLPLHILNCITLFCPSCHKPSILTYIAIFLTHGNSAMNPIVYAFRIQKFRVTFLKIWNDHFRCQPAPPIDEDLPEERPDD
Assay: Ability to displace [3H]- DPCPX from CHO cell membrane expressing the human Adenosine A1 receptor at a concentration of 10 uM
Format: cell membranes
EXPERIMENTAL_READOUT: Displacement (%)

1. COc1ccn2c(c1)nc1c2c(=O)[nH]c(=O)n1Cc1ccccc1    49
2. O=c1[nH]c(=O)n(Cc2ccccc2)c2nc3cc(-c4ccccc4)ccn3c12    11
3. NCCCn1c(=O)c2c(nc3ccccn32)n(Cc2ccccc2)c1=O    7

* * *

Target: Adenosine receptor A2a (Homo sapiens, UniProt P29274)
Test: Ability to displace [3H]- ZM-241385 from CHO cell membrane expressing the human Adenosine A2A receptor at a concentration of 10 uM
Type: cell membranes
Answer Not fulfilled if Displacement is under 20%, and Fulfilled if it is 20% or more.

1) O=c1[nH]c(=O)n(Cc2ccccc2)c2nc3cc(-c4ccccc4)ccn3c12    Not fulfilled
2) CCCn1c(=O)c2c(nc3cc(-c4ccccc4)ccn32)n(Cc2ccccc2)c1=O    Not fulfilled
3) O=c1[nH]c(=O)n(Cc2ccccc2)c2nc3ccccn3c12    Fulfilled
4) O=c1c2c(nc3ccccn32)n(Cc2ccccc2)c(=O)n1CC1CCCCC1    Fulfilled
5) CC(C)Cn1c(=O)c2c(nc3ccccn32)n(Cc2ccccc2)c1=O    Fulfilled
